Test: Solubility assessment and polymorph screen on Sample 1 (Form 1) of RAD1901-2HCl in 24 solvent systems
Format: physicochemical
Settings: solid recovered after maturation, cooling or evaporation
measured.metric: XRPD of recovered solid (form)

[[record]]
molecule = "CCNCCc1ccc(CN(CC)c2cc(OC)ccc2[C@@H]2CCc3cc(O)ccc3C2)cc1.Cl.Cl [Form A12]"
value = "Form 3"

[[record]]
molecule = "CCNCCc1ccc(CN(CC)c2cc(OC)ccc2[C@@H]2CCc3cc(O)ccc3C2)cc1.Cl.Cl [Form A19]"
value = "Form 1"

[[record]]
molecule = "CCNCCc1ccc(CN(CC)c2cc(OC)ccc2[C@@H]2CCc3cc(O)ccc3C2)cc1.Cl.Cl [Form A2]"
value = "Form 1"

[[record]]
molecule = "CCNCCc1ccc(CN(CC)c2cc(OC)ccc2[C@@H]2CCc3cc(O)ccc3C2)cc1.Cl.Cl [Form A23]"
value = "Form 3"


* * *

Assay: Solubility assessment and polymorph screen on Sample 1 (Form 1) of RAD1901-2HCl in 24 solvent systems
Format: physicochemical
Conditions: slow evaporation at ambient conditions
measured.metric: Observation after Evaporation

[[record]]
compound = "CCNCCc1ccc(CN(CC)c2cc(OC)ccc2[C@@H]2CCc3cc(O)ccc3C2)cc1.Cl.Cl [Form A12]"
value = "Solid"

[[record]]
compound = "CCNCCc1ccc(CN(CC)c2cc(OC)ccc2[C@@H]2CCc3cc(O)ccc3C2)cc1.Cl.Cl [Form A11]"
value = "S"


* * *

Test: Solubility assessment of amorphous RAD1901-2HCl in water/organic solvent mixtures
Type: physicochemical
Conditions: after stirring at 25° C. for 72 hours
Method: Samples of amorphous RAD1901-2HCl were prepared in water/organic solvent mixtures containing varying ratios of water. The organic solvents chosen were anhydrous ethanol, methanol and ethyl acetate. […] The water activity values for each water/organic solvent mixture are provided in Table 16, and were calculated using the reference given in Bell, Halling, Enzyme Microbiol. […]
Marks after values point to notes of the source that are not given here.
measured.metric: XRPD (form) after stirring

[[record]]
molecule = "CCNCCc1ccc(CN(CC)c2cc(OC)ccc2[C@@H]2CCc3cc(O)ccc3C2)cc1.Cl.Cl [Form C10.]"
value = "Form 3"

[[record]]
molecule = "CCNCCc1ccc(CN(CC)c2cc(OC)ccc2[C@@H]2CCc3cc(O)ccc3C2)cc1.Cl.Cl [Form C1.]"
value = "Form 3"


* * *

Test: Solubility assessment of amorphous RAD1901-2HCl in water/organic solvent mixtures
Format: physicochemical
Conditions: 25° C., 72 hours
measured.metric: Observation After stirring at 25° C. for 72 hours

[[record]]
compound = "CCNCCc1ccc(CN(CC)c2cc(OC)ccc2[C@@H]2CCc3cc(O)ccc3C2)cc1.Cl.Cl [Form C7.]"
value = "Crystals"

[[record]]
compound = "CCNCCc1ccc(CN(CC)c2cc(OC)ccc2[C@@H]2CCc3cc(O)ccc3C2)cc1.Cl.Cl [Form C6.]"
value = "Crystals"

[[record]]
compound = "CCNCCc1ccc(CN(CC)c2cc(OC)ccc2[C@@H]2CCc3cc(O)ccc3C2)cc1.Cl.Cl [Form C5.]"
value = "S"

[[record]]
compound = "CCNCCc1ccc(CN(CC)c2cc(OC)ccc2[C@@H]2CCc3cc(O)ccc3C2)cc1.Cl.Cl [Form C8.]"
value = "Crystals"


* * *

Assay: Solubility assessment and polymorph screen on Sample 1 (Form 1) of RAD1901-2HCl in 24 solvent systems
Format: physicochemical
Settings: solid recovered after maturation, cooling or evaporation
Marks after values point to notes of the source that are not given here.
measured.metric: XRPD of recovered solid (form)

[[record]]
compound = "CCNCCc1ccc(CN(CC)c2cc(OC)ccc2[C@@H]2CCc3cc(O)ccc3C2)cc1.Cl.Cl [Form A6]"
value = "Form 3*"

[[record]]
compound = "CCNCCc1ccc(CN(CC)c2cc(OC)ccc2[C@@H]2CCc3cc(O)ccc3C2)cc1.Cl.Cl [Form A13]"
value = "Form 1"

[[record]]
compound = "CCNCCc1ccc(CN(CC)c2cc(OC)ccc2[C@@H]2CCc3cc(O)ccc3C2)cc1.Cl.Cl [Form A15]"
value = "Form 1"

[[record]]
compound = "CCNCCc1ccc(CN(CC)c2cc(OC)ccc2[C@@H]2CCc3cc(O)ccc3C2)cc1.Cl.Cl [Form A5]"
value = "Form 1"

[[record]]
compound = "CCNCCc1ccc(CN(CC)c2cc(OC)ccc2[C@@H]2CCc3cc(O)ccc3C2)cc1.Cl.Cl [Form A22]"
value = "Form 3*"

[[record]]
compound = "CCNCCc1ccc(CN(CC)c2cc(OC)ccc2[C@@H]2CCc3cc(O)ccc3C2)cc1.Cl.Cl [Form A4]"
value = "Form 1"


* * *

Experiment: Solubility assessment and polymorph screen on amorphous RAD1901-2HCl
Type: physicochemical
Conditions: amorphous RAD1901-2HCl; 10 vol. solvent (solvent per sample ID)
measured.metric: Solubility observation at 10 vol.

[[record]]
molecule = "CCNCCc1ccc(CN(CC)c2cc(OC)ccc2[C@@H]2CCc3cc(O)ccc3C2)cc1.Cl.Cl [Form B10.]"
value = "X (X = suspension)"

[[record]]
molecule = "CCNCCc1ccc(CN(CC)c2cc(OC)ccc2[C@@H]2CCc3cc(O)ccc3C2)cc1.Cl.Cl [Form B12.]"
value = "S (S = solution)"

[[record]]
molecule = "CCNCCc1ccc(CN(CC)c2cc(OC)ccc2[C@@H]2CCc3cc(O)ccc3C2)cc1.Cl.Cl [Form B6.]"
value = "X (X = suspension)"

[[record]]
molecule = "CCNCCc1ccc(CN(CC)c2cc(OC)ccc2[C@@H]2CCc3cc(O)ccc3C2)cc1.Cl.Cl [Form B24.]"
value = "X (X = suspension)"

[[record]]
molecule = "CCNCCc1ccc(CN(CC)c2cc(OC)ccc2[C@@H]2CCc3cc(O)ccc3C2)cc1.Cl.Cl [Form B5.]"
value = "X (X = suspension)"

[[record]]
molecule = "CCNCCc1ccc(CN(CC)c2cc(OC)ccc2[C@@H]2CCc3cc(O)ccc3C2)cc1.Cl.Cl [Form B3.]"
value = "X (X = suspension)"

[[record]]
molecule = "CCNCCc1ccc(CN(CC)c2cc(OC)ccc2[C@@H]2CCc3cc(O)ccc3C2)cc1.Cl.Cl [Form B22.]"
value = "S (S = solution)"

[[record]]
molecule = "CCNCCc1ccc(CN(CC)c2cc(OC)ccc2[C@@H]2CCc3cc(O)ccc3C2)cc1.Cl.Cl [Form B23.]"
value = "X (X = suspension)"

[[record]]
molecule = "CCNCCc1ccc(CN(CC)c2cc(OC)ccc2[C@@H]2CCc3cc(O)ccc3C2)cc1.Cl.Cl [Form B8.]"
value = "X (X = suspension)"


* * *

Experiment: Solubility assessment and polymorph screen on Sample 1 (Form 1) of RAD1901-2HCl in 24 solvent systems
Format: physicochemical
Conditions: 20 vol. solvent (solvent per sample ID)
measured.metric: Solubility observation at 20 vol.

[[record]]
compound = "CCNCCc1ccc(CN(CC)c2cc(OC)ccc2[C@@H]2CCc3cc(O)ccc3C2)cc1.Cl.Cl [Form A17]"
measured_metric = "Solubility observation at 20 vol."
value = "X (X = suspension)"

[[record]]
compound = "CCNCCc1ccc(CN(CC)c2cc(OC)ccc2[C@@H]2CCc3cc(O)ccc3C2)cc1.Cl.Cl [Form A1]"
measured_metric = "Solubility observation at 20 vol."
value = "X (X = suspension)"

[[record]]
compound = "CCNCCc1ccc(CN(CC)c2cc(OC)ccc2[C@@H]2CCc3cc(O)ccc3C2)cc1.Cl.Cl [Form A23]"
measured_metric = "Solubility observation at 20 vol."
value = "X (X = suspension)"

[[record]]
compound = "CCNCCc1ccc(CN(CC)c2cc(OC)ccc2[C@@H]2CCc3cc(O)ccc3C2)cc1.Cl.Cl [Form A13]"
measured_metric = "Solubility observation at 20 vol."
value = "X (X = suspension)"

[[record]]
compound = "CCNCCc1ccc(CN(CC)c2cc(OC)ccc2[C@@H]2CCc3cc(O)ccc3C2)cc1.Cl.Cl [Form A3]"
measured_metric = "Solubility observation at 20 vol."
value = "X (X = suspension)"

[[record]]
compound = "CCNCCc1ccc(CN(CC)c2cc(OC)ccc2[C@@H]2CCc3cc(O)ccc3C2)cc1.Cl.Cl [Form A15]"
measured_metric = "Solubility observation at 20 vol."
value = "X (X = suspension)"

[[record]]
compound = "CCNCCc1ccc(CN(CC)c2cc(OC)ccc2[C@@H]2CCc3cc(O)ccc3C2)cc1.Cl.Cl [Form A8]"
measured_metric = "Solubility observation at 20 vol."
value = "X (X = suspension)"

[[record]]
compound = "CCNCCc1ccc(CN(CC)c2cc(OC)ccc2[C@@H]2CCc3cc(O)ccc3C2)cc1.Cl.Cl [Form A24]"
measured_metric = "Solubility observation at 20 vol."
value = "X (X = suspension)"

[[record]]
compound = "CCNCCc1ccc(CN(CC)c2cc(OC)ccc2[C@@H]2CCc3cc(O)ccc3C2)cc1.Cl.Cl [Form A12]"
measured_metric = "Solubility observation at 20 vol."
value = "S (S = solution)"

[[record]]
compound = "CCNCCc1ccc(CN(CC)c2cc(OC)ccc2[C@@H]2CCc3cc(O)ccc3C2)cc1.Cl.Cl [Form A22]"
measured_metric = "Solubility observation at 20 vol."
value = "S (S = solution)"

[[record]]
compound = "CCNCCc1ccc(CN(CC)c2cc(OC)ccc2[C@@H]2CCc3cc(O)ccc3C2)cc1.Cl.Cl [Form A19]"
measured_metric = "Solubility observation at 20 vol."
value = "X (X = suspension)"


Ref: patent US11643385B2
